system: MCF7; assay: Antiproliferative activity against human MCF7 cells after 72 hrs by MTT assay; assay type: functional, cell-based; details: MCF7, 72 h
pIC50: −log10 of the molar value.
Quick list: pIC50 per entry.
Readout label: pIC50

structure_string=CN(C=O)CCc1cc2c(cc1-c1cc3ccc4c(c3cn1)OCO4)OCO2 numeric_value=3.89
structure_string=COCCc1cc(OC)c(OC)cc1-c1cc2ccc3c(c2cn1)OCO3 numeric_value=4.49
structure_string=CNCCc1cc(OC)c(OC)cc1-c1cc2ccc3c(c2cn1)OCO3 numeric_value=4.28
structure_string=CNCCCc1cc2c(cc1-c1cc3ccc4c(c3cn1)OCO4)OCO2 numeric_value=4.37
structure_string=CN(C)CCc1cc2c(cc1-c1cc3ccc4c(c3cn1)OCO4)OCO2 numeric_value=4.21
structure_string=CCOC(=O)N(C)CCc1cc2c(cc1-c1cc3ccc4c(c3cn1)OCO4)OCO2 numeric_value=4.16
structure_string=CNCc1cc2c(cc1-c1cc3ccc4c(c3cn1)OCO4)OCO2 numeric_value=4.65
structure_string=CN(C)CCCCc1cc2c(cc1-c1cc3ccc4c(c3cn1)OCO4)OCO2 numeric_value=4.27
structure_string=CNCCc1cc2c(cc1-c1cc3ccc4c(c3cn1)OCO4)OCO2 numeric_value=4.30
structure_string=CN(C)CCCc1cc2c(cc1-c1cc3ccc4c(c3cn1)OCO4)OCO2 numeric_value=4.22
structure_string=COc1cc(CCN(C)C)c(-c2cc3ccc4c(c3cn2)OCO4)cc1OC numeric_value=4.02
structure_string=CNCCCCc1cc2c(cc1-c1cc3ccc4c(c3cn1)OCO4)OCO2 numeric_value=4.26

---

experiment: Tmax in male Sprague-Dawley rat at 100 mg/kg, ip; assay type: ADME, organism-based; conditions: in vivo
Readout label: Tmax (h)

structure_string=CNCc1cc2c(cc1-c1cc3ccc4c(c3cn1)OCO4)OCO2 unit_string=h numeric_value=1

---

assay: Cmax in male Sprague-Dawley rat at 100 mg/kg, ip; type: ADME, organism-based; set-up: dose 100 mg/kg, route ip; conditions: in vivo
Readout label: Cmax

structure_string=CNCc1cc2c(cc1-c1cc3ccc4c(c3cn1)OCO4)OCO2 result="8900 ng/mL"

---

tested on: HepG2; experiment: Antiproliferative activity against human HepG2 cells after 72 hrs by MTT assay; format: functional, cell-based; details: HepG2, 72 h
Readout label: IC50 (µM)

structure_string=CNCc1cc2c(cc1-c1cc3ccc4c(c3cn1)OCO4)OCO2 numeric_value=52
structure_string=CNCc1c(-c2cc3c4c(ccc3cn2)OCO4)ccc2c1OCO2 numeric_value=26.7
structure_string=CN(C)Cc1c(-c2cc3c4c(ccc3cn2)OCO4)ccc2c1OCO2 numeric_value=46.7
structure_string=CNCCCc1cc2c(cc1-c1cc3ccc4c(c3cn1)OCO4)OCO2 numeric_value=35.7

---

assay: MRT (0 to t)in male Sprague-Dawley rat at 100 mg/kg, ip; format: ADME, organism-based; settings: in vivo
Readout label: MRT last (h)

structure_string=CNCc1cc2c(cc1-c1cc3ccc4c(c3cn1)OCO4)OCO2 unit_string=h numeric_value=1

---

Quick list: IC50 per entry.
tested on: HepG2; assay: Antiproliferative activity against human HepG2 cells after 72 hrs by MTT assay; assay type: functional, cell-based; conditions: HepG2, 72 h
Readout label: IC50 (µM)

structure_string=CNCCCCc1cc2c(cc1-c1cc3ccc4c(c3cn1)OCO4)OCO2 bound_operator== numeric_value=23.2
structure_string=CN(C=O)CCc1cc2c(cc1-c1cc3ccc4c(c3cn1)OCO4)OCO2 bound_operator== numeric_value=74
structure_string=OCc1c(-c2cc3c4c(ccc3cn2)OCO4)ccc2c1OCO2 bound_operator=> numeric_value=150
structure_string=COc1cc(CCN(C)C)c(-c2cc3ccc4c(c3cn2)OCO4)cc1OC bound_operator=> numeric_value=150
structure_string=CNCCc1cc2c(cc1-c1cc3ccc4c(c3cn1)OCO4)OCO2 bound_operator== numeric_value=45
structure_string=CN(C)CCCc1cc2c(cc1-c1cc3ccc4c(c3cn1)OCO4)OCO2 bound_operator== numeric_value=80.4
structure_string=CCOC(=O)N(C)CCc1cc2c(cc1-c1cc3ccc4c(c3cn1)OCO4)OCO2 bound_operator== numeric_value=27.3
structure_string=CN(C)Cc1cc2c(cc1-c1cc3ccc4c(c3cn1)OCO4)OCO2 bound_operator== numeric_value=20.8
structure_string=CN(C)CCc1cc2c(cc1-c1cc3ccc4c(c3cn1)OCO4)OCO2 bound_operator== numeric_value=72.5
structure_string=COCCc1cc(OC)c(OC)cc1-c1cc2ccc3c(c2cn1)OCO3 bound_operator=> numeric_value=150
structure_string=CN(C)CCCCc1cc2c(cc1-c1cc3ccc4c(c3cn1)OCO4)OCO2 bound_operator== numeric_value=55.4

---

assay: Half-life in male Sprague-Dawley rat at 100 mg/kg, ip; assay type: ADME, organism-based; details: in vivo
Readout label: half-life

structure_string=CNCc1cc2c(cc1-c1cc3ccc4c(c3cn1)OCO4)OCO2 result="3.73 h"

---

system: SGC-7901; experiment: Antiproliferative activity against human SGC-7901 cells after 72 hrs by MTT assay; assay type: functional, cell-based; conditions: SGC-7901, 72 h
Quick list: IC50 per entry.
Readout label: IC50 (µM)

structure_string=CCOC(=O)N(C)CCc1cc2c(cc1-c1cc3ccc4c(c3cn1)OCO4)OCO2 bound_operator== numeric_value=28.8
structure_string=COCCc1cc(OC)c(OC)cc1-c1cc2ccc3c(c2cn1)OCO3 bound_operator=> numeric_value=150
structure_string=CNCCCc1cc2c(cc1-c1cc3ccc4c(c3cn1)OCO4)OCO2 bound_operator== numeric_value=41.6
structure_string=CN(C)CCc1cc2c(cc1-c1cc3ccc4c(c3cn1)OCO4)OCO2 bound_operator== numeric_value=45.1
structure_string=CN(C)Cc1cc2c(cc1-c1cc3ccc4c(c3cn1)OCO4)OCO2 bound_operator== numeric_value=48.2
structure_string=COc1cc(CCN(C)C)c(-c2cc3ccc4c(c3cn2)OCO4)cc1OC bound_operator== numeric_value=81.9
structure_string=CNCc1cc2c(cc1-c1cc3ccc4c(c3cn1)OCO4)OCO2 bound_operator== numeric_value=30.8
structure_string=CN(C)CCCc1cc2c(cc1-c1cc3ccc4c(c3cn1)OCO4)OCO2 bound_operator== numeric_value=55.5
structure_string=CN(C=O)CCc1cc2c(cc1-c1cc3ccc4c(c3cn1)OCO4)OCO2 bound_operator=> numeric_value=150
structure_string=CNCCc1cc(OC)c(OC)cc1-c1cc2ccc3c(c2cn1)OCO3 bound_operator=> numeric_value=150
structure_string=CN(C)CCCCc1cc2c(cc1-c1cc3ccc4c(c3cn1)OCO4)OCO2 bound_operator== numeric_value=39
structure_string=CNCCCCc1cc2c(cc1-c1cc3ccc4c(c3cn1)OCO4)OCO2 bound_operator== numeric_value=20

---

assay: AUC (0 to t) in male Sprague-Dawley rat at 100 mg/kg, ip; assay type: ADME, organism-based; design: dose 100 mg/kg, route ip; settings: in vivo
Readout label: AUC(0-t) (ng·h/mL)

structure_string=CNCc1cc2c(cc1-c1cc3ccc4c(c3cn1)OCO4)OCO2 numeric_value=31600
